assayComment: chemical genetic growth profiling, strain panel (AID 1159580);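 further: tested at 20 µM; growth read once vehicle control cultures reached saturation at 30 °C; 1 = growth at the plate median or of vehicle wells; lower values mean less growth of the strain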
conditions: S. cerevisiae deletion strains, growth OD, locus YJL095W, strain BCK1, hits give low values
The whole screen tested about 5,500 compounds, of which about 2,000 (36%) were called active. Not shown: some 18% with an inconclusive outcome. The list shows a part of the results.
For each of the compounds below, state its normalized growth.
The reply should be a number, written without any unit.

Per the record, S=C(N/N=C\c1cccs1)NC1CC2CCC1C2 (stereo unspecified) has normalized growth of 0.89

Per the record, OCc1c[nH]c2ccccc12 has normalized growth of 0.979

Per the record, CNS(=O)(=O)c1ccc(NC(=O)c2ccccc2C(=O)O)cc1 has normalized growth of 0.981

Per the record, COc1cc2c(cc1OC)-c1c(oc3c4c(ccc3c1=O)OC(C(C)C)C4)CO2 (stereo unspecified) has normalized growth of 0.965

Per the record, COc1cc(-c2oc3cc(O)ccc3c(=O)c2O)cc(OC)c1OC has normalized growth of 0.984

Per the record, CC1=NN(c2ccccc2)C(=O)C1 has normalized growth of 0.935

====

For each of the molecules below, state its normalized growth.
assayComment: chemical genetic growth profiling, strain panel (AID 1159580);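 further: tested at 20 µM; growth read once vehicle control cultures reached saturation at 30 °C; 1 = growth at the plate median or of vehicle wells; lower values mean less growth of the strain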
conditions: S. cerevisiae deletion strains, growth OD, locus YLR262C, strain YPT6, hits give low values
In all, about 5,500 compounds went through this assay and about 2,000 (36%) were called active. Roughly 18% stayed inconclusive and do not appear here. Some of the results follow.

Per the record, CCOc1ccc(NC(C)=O)cc1 has normalized growth of 0.999 (inactive)

Per the record, CC(NCCC(c1ccccc1)c1ccccc1)c1ccccc1 (stereo not drawn) has normalized growth of 1.16 (inactive)

Per the record, CCNc1nc(Cl)nc(NCC)n1 has normalized growth of 0.997 (inactive)

Per the record, O=C1CCCN1c1ccc(Cl)c(Cl)c1 has normalized growth of 0.949 (inactive)

Per the record, COP(=O)(OC)OC(Br)C(Cl)(Cl)Br (stereo not drawn) has normalized growth of 0.99 (inactive)

Per the record, CC(N)C(O)c1ccc(O)c(O)c1 (stereo not drawn) has normalized growth of 0.997 (inactive)

Per the record, COc1cc2c(cc1O)CCNC2C (stereo not drawn) has normalized growth of 1.05 (inactive)

Per the record, CCOc1ccc(C(=O)c2ccc(O)c(O)c2O)cc1 has normalized growth of 0.896 (inactive)

Per the record, O=C1CC2(CCCC2)C(=O)N1CCNc1nccc(C(F)(F)F)n1 has normalized growth of 0.972 (inactive)

Per the record, CC(C)(C)c1cc(-c2cc(C(F)(F)F)[nH]n2)c2c(c1)C(C)(C)CC2 has normalized growth of 0.891 (inactive)

Per the record, O=C(c1cccc([N+](=O)[O-])c1)c1cc2cc(Br)cc(Br)c2o1 has normalized growth of 0.974 (inactive)

Per the record, COC(=O)c1ccccc1CSc1nccc(C(F)(F)F)n1 has normalized growth of 0.752 (active)

Per the record, COc1ccc(C(=O)c2ccccc2)c(O)c1O has normalized growth of 0.824 (inactive)

====

For each of the molecules below, state its normalized growth.
assayComment: chemical genetic growth profiling, strain panel (AID 1159580);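 further: tested at 20 µM; growth read once vehicle control cultures reached saturation at 30 °C; 1 = growth at the plate median or of vehicle wells; lower values mean less growth of the strain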
conditions: S. cerevisiae deletion strains, growth OD, locus YJL168C, strain set2, hits give low values
Among all 5,500 compounds or so, about 2,000 (36%) were called active. Not shown: some 18% with an inconclusive outcome. The list shows a part of the results.
The reply should be a number, written without any unit.

Per the record, Cc1onc(-c2ccccc2)c1C(=O)NC1C(=O)N2[C@@H]1SC(C)(C)[C@@H]2C(=O)O (some centres undefined) has normalized growth of 1

Per the record, COc1cccc(OC)c1C(=O)N[C@@H]1C(=O)N2[C@@H]1SC(C)(C)[C@@H]2C(=O)O has normalized growth of 0.988

Per the record, COc1ccc(C(=O)c2ccc(O)cc2)c(O)c1O has normalized growth of 1

Per the record, O=c1oc2c(O)c(O)cc3c(=O)oc4c(O)c(O)cc1c4c23 has normalized growth of 0.898

Per the record, Cc1onc(-c2ccccc2Cl)c1C(=O)N[C@@H]1C(=O)N2[C@@H]1SC(C)(C)[C@@H]2C(=O)O has normalized growth of 1.02

Per the record, CC1(C)S[C@@H]2[C@H](NC(=O)Cc3ccccc3)C(=O)N2[C@H]1C(=O)O has normalized growth of 1.02

Per the record, COc1cc(-c2coc3cc(O[C@@H]4O[C@H](CO)[C@@H](O)[C@H](O)[C@H]4O)c(OC)c(O)c3c2=O)cc(O)c1OC has normalized growth of 0.995

Per the record, COc1cc(/C=C/C=O)cc(OC)c1OC has normalized growth of 0.997

Per the record, Cc1onc(-c2c(Cl)cccc2Cl)c1C(=O)N[C@@H]1C(=O)N2[C@@H]1SC(C)(C)[C@@H]2C(=O)O has normalized growth of 0.988

Values compiled from PubChem BioAssay AID1159580.
